Details: 298.15 K; 101.33 kPa; Liquid
± gives the expanded uncertainty stated by the source.
resultType: viscosity
Answer format: value, then unit.

Worked examples, 3 compounds total:
[
  {
    "compound": "CCCCCO",
    "viscosity": "3.556 ± 0.043 mPa·s"
  },
  {
    "compound": "CCCO",
    "viscosity": "1.981 ± 0.023 mPa·s"
  },
  {
    "compound": "CCOC(=O)OCC [diethyl carbonate]",
    "viscosity": "0.746 ± 0.011 mPa·s"
  }
]

Note to self: viscosity recorded for CCCCO was 2.619 ± 0.031 mPa·s

These entries and their values trace back to the NIST ThermoML archive (doi:10.1021/je0600808).
